test system: NCI/ADR-RES ovarian; assay: NCI tumour cell line growth inhibition, 48 h; in the data active means GI50 below about 0.43 µM; inactive means the rest
Your response should consist of one outcome taken from y for active, n for inactive

INSERT INTO assay_data (compound, answer_label) VALUES
  ('CCCCCCCCCCCCCCCCCCNC(=O)[C@H]1CSC(c2cccs2)N1 (stereo partly drawn)', 'n'),
  ('CCCCCCCCCCN=C(c1ccc(N(C)C)cc1)c1ccc(N(C)C)cc1', 'y'),
  ('Cn1c(/C(C#N)=C/c2ccc3ccccc3c2)cc2ccccc21', 'y'),
  ('O=c1c2c3c(sc2n2c(-c4cc(-c5ccccc5)nn4-c4ccccc4)nnc2n1Cc1ccccc1)CCCC3', 'n'),
  ('OC(CN1CC1)C(O)CN1CC1 (stereo not drawn)', 'n'),
  ('c1ccc2nc3c(cc4ccccn43)nc2c1', 'n'),
  ('CC(C)c1ccc(C(=O)Nc2sc3c(CN(C)C)c(O)ccc3c2C(N)=O)cc1', 'n'),
  ('COc1cc2c(cc1-c1c(C)noc1C)cc(C)c(=O)n2Cc1ccccn1', 'n'),
  ('C=C(CN1CCc2ccccc2C1)c1ccc(C(=O)Nc2ccccc2N)cc1', 'n'),
  ('Cc1cc(Nc2nc(SCc3ccc(C(=O)Nc4ccc(F)cc4N)cc3)nn3cccc23)n[nH]1', 'n');

Assay outcome for `CNC(=O)c1cc2c(Oc3ccc(NC(=O)C4(C(=O)Nc5ccc(F)cc5)CC4)cc3)ccnc2cc1OC` : what was it?
n

What outcome does the record of this test show for `COc1ccc2cc(-c3ccc(-c4ccc(C(=N)N)s4)s3)ccc2c1` ?
n

How was `O=C1C(Cl)=C(Nc2ccccc2)C(=O)c2ccccc21` classified in this test?
n

* * *

tested on: RPMI-8226 leukemia; assay: NCI tumour cell line growth inhibition, 48 h
metric_name: log10 TGI (log10 of the value in µM)
Give log10 of TGI, with TGI taken in µM.

Consider the worked cases shown below.
INSERT INTO measurements (molecule, metric_name, observed_value) VALUES
  ('CCC(=C(c1ccc(OCCCN(C)C)cc1)c1ccc(OCCCN(C)C)cc1)c1ccc(Cl)cc1', 'log10 TGI', -0.06),
  ('COc1ccc(/C=C2/CCc3cc4ccc(OC)cc4[o+]c32)c(O)c1', 'log10 TGI', 1.11);

For this molecule ( `COc1ccccc1/C=C/C(=O)/C=C/c1ccccc1O` ), measured log10 TGI is -0.40

The measured log10 TGI associated with COc1cc(C2CC(C)(Nc3ccccc3)Oc3cc4c(cc32)OCO4)cc(OC)c1OC (configuration not stated) reads 1.70

// `CC(C)COP(=O)(OCC(C)C)C(NS(=O)(=O)c1ccccc1)(C(F)(F)F)C(F)(F)F` : log10 TGI value = 0.81

* * *

tested on: ACHN renal; experiment: NCI tumour cell line growth inhibition, 48 h
metric_name: TGI

Known TGI results, listed for orientation:
INSERT INTO measurements (compound, system_tested, observed_value) VALUES
  ('C(=N\NC1=NCCCN1)/c1ccc2ccccc2c1', 'ACHN renal', '22.2 µM'),
  ('O=C1C=CC(=O)N1Nc1ccc([N+](=O)[O-])cc1[N+](=O)[O-]', 'ACHN renal', '> 100 µM'),
  ('CCOC(=O)/C(=C/c1cccc(OC)c1)N(CC)CC', 'ACHN renal', '> 100 µM'),
  ('CN(C)Cc1c[nH]c2c(NCCN)c3c(c(NCCN)c12)C(=O)c1ccccc1C3=O', 'ACHN renal', '9.04 µM');

Summary for this compound, `c1ccc(Cn2cnc3ccc(-c4nc(-c5ccc6c(c5)ncn6C5CCCCC5)cn5ccnc45)cc32)cc1` : TGI is > 100 µM

Sample `NC(N)=NS(=O)(=O)c1ccc(NC(=O)c2cccc3c(Nc4ccc(S(N)(=O)=O)cc4)c4ccccc4nc23)cc1` ; TGI observed: > 100 µM

TGI reading for `C=CCSc1nc2ccccc2c(=O)n1Cc1ccco1` : > 100 µM

TGI for `CC(=O)[O-].CC(=O)[O-].CC(=O)[O-].CC(=O)[O-].[Mo+2].[Mo+2]` is > 100 µM

Per the records, this compound ( `Cn1c2ccccc2c2c(=O)c3ccccc3[nH]c21` ) has TGI equal to > 100 µM

For O=C(O)CCC(NC(=S)S)C(=O)O.[Na+].[Zn+2] (stereo unspecified) the compound record lists TGI as > 50 µM

The reported value for `CSc1cc(Cl)c(C)cc1S(=O)(=O)NC(=O)NNc1ccc(Cl)cc1` in terms of TGI is > 100 µM

// TGI lookup, compound = `CNC(=O)c1cc2c(Oc3ccc(NC(=O)C4(C(=O)Nc5ccc(F)cc5)CC4)cc3)ccnc2cc1OC` , result: > 100 µM

Recorded TGI (compound `NNC(=O)c1ccc[n+](CCc2ccccc2)c1` ): > 100 µM

TGI reported for this compound C1=CC2=CC=CC3c4nc5ccc6ccccc6c5nc4C(=C1)C23 (stereo unspecified) : > 100 µM

COc1ccc(CC(C)C(C)Cc2ccc(OC)c(OC)c2)cc1OC (stereo unspecified) yielded TGI of > 1400 µM

Item: `O=C(c1ccc2ccccc2c1)c1c(C(F)(F)F)n([O-])c2ccc(Cl)cc2[n+]1=O` | TGI: 2.98 µM

Record `Cc1ncc(C(=O)Nc2ccc(CN3CCN(C)CC3)c(C(F)(F)F)c2)cc1C#Cc1cnc(NC2CC2)c2ncccc12` , field TGI: 1.04 µM

Reported TGI of `O=c1cc(N=P(c2ccccc2)(c2ccccc2)c2ccccc2)n(-c2ccccc2)c(=O)n1-c1ccccc1` : 45.4 µM

The compound identified as `O=c1c(Cl)c(Cl)cnn1CCc1ccncc1` registered its TGI at 33.4 µM

What the record says about `CCOC(=O)NC(=S)NN(C)C1=NCC(C)(C)S1` : TGI is > 100 µM

TGI measured on `Oc1ccccc1/C=N/c1nc2cc3sc(/N=C/c4ccccc4O)nc3cc2s1` = > 100 µM

These data points were gathered from PubChem BioAssay (NCI).
